# Test: Metabolic stability test (rat)
# Assay type: in vitro ADME
Experimental endpoint: Amount of compound remained, Rat (%)
Kindly provide the numeric value in % only, without the unit symbol.

// field: Amount of compound remained, Rat; key: C[C@@H](CO[C@H]1CC[C@H](Oc2nc3c(F)cc(OC4CC4)cc3n2C)CC1)NC(N)=O [Compound I-12] ; value = 85.5

// field: Amount of compound remained, Rat; key: C[C@@H](CCC1OCC(Oc2nc3c(F)cc(OCC(F)F)c(F)c3n2C)CO1)NC(N)=O (stereo partly shown) [Compound I-11] ; value = 94.5

// field: Amount of compound remained, Rat; key: CC(=O)N[C@@H](C)CO[C@H]1CC[C@H](Oc2nc3c(F)cc(OCC(F)F)c(F)c3n2C)CC1 [Compound I-14] ; value = 78

// field: Amount of compound remained, Rat; key: CC(=O)N[C@@H](C)C(F)(F)C[C@H]1CC[C@H](Oc2nc3c(F)cc(OCC(F)F)c(F)c3n2C)CO1 [Compound I-6] ; value = 74

// field: Amount of compound remained, Rat; key: CC(=O)N[C@@H](C)CO[C@H]1CC[C@H](Oc2nc3c(F)cc(OC4CC4)cc3n2C)CC1 [Compound I-15] ; value = 76.2

// field: Amount of compound remained, Rat; key: CC(=O)N[C@@H](C)CO[C@H]1CC[C@H](Oc2nc3c(Cl)cc(OC4CC4)cc3n2C)CC1 [Compound I-3] ; value = 82.6

// field: Amount of compound remained, Rat; key: CC(=O)N[C@@H](CF)CO[C@H]1CC[C@H](Oc2nc3c(F)cc(OC4CC4)cc3n2C)CC1 [Compound I-4] ; value = 87.3

----------
# Tested system: recombinant human ACC2 (Homo sapiens (Human))
# Sequence (O00763 27-2458): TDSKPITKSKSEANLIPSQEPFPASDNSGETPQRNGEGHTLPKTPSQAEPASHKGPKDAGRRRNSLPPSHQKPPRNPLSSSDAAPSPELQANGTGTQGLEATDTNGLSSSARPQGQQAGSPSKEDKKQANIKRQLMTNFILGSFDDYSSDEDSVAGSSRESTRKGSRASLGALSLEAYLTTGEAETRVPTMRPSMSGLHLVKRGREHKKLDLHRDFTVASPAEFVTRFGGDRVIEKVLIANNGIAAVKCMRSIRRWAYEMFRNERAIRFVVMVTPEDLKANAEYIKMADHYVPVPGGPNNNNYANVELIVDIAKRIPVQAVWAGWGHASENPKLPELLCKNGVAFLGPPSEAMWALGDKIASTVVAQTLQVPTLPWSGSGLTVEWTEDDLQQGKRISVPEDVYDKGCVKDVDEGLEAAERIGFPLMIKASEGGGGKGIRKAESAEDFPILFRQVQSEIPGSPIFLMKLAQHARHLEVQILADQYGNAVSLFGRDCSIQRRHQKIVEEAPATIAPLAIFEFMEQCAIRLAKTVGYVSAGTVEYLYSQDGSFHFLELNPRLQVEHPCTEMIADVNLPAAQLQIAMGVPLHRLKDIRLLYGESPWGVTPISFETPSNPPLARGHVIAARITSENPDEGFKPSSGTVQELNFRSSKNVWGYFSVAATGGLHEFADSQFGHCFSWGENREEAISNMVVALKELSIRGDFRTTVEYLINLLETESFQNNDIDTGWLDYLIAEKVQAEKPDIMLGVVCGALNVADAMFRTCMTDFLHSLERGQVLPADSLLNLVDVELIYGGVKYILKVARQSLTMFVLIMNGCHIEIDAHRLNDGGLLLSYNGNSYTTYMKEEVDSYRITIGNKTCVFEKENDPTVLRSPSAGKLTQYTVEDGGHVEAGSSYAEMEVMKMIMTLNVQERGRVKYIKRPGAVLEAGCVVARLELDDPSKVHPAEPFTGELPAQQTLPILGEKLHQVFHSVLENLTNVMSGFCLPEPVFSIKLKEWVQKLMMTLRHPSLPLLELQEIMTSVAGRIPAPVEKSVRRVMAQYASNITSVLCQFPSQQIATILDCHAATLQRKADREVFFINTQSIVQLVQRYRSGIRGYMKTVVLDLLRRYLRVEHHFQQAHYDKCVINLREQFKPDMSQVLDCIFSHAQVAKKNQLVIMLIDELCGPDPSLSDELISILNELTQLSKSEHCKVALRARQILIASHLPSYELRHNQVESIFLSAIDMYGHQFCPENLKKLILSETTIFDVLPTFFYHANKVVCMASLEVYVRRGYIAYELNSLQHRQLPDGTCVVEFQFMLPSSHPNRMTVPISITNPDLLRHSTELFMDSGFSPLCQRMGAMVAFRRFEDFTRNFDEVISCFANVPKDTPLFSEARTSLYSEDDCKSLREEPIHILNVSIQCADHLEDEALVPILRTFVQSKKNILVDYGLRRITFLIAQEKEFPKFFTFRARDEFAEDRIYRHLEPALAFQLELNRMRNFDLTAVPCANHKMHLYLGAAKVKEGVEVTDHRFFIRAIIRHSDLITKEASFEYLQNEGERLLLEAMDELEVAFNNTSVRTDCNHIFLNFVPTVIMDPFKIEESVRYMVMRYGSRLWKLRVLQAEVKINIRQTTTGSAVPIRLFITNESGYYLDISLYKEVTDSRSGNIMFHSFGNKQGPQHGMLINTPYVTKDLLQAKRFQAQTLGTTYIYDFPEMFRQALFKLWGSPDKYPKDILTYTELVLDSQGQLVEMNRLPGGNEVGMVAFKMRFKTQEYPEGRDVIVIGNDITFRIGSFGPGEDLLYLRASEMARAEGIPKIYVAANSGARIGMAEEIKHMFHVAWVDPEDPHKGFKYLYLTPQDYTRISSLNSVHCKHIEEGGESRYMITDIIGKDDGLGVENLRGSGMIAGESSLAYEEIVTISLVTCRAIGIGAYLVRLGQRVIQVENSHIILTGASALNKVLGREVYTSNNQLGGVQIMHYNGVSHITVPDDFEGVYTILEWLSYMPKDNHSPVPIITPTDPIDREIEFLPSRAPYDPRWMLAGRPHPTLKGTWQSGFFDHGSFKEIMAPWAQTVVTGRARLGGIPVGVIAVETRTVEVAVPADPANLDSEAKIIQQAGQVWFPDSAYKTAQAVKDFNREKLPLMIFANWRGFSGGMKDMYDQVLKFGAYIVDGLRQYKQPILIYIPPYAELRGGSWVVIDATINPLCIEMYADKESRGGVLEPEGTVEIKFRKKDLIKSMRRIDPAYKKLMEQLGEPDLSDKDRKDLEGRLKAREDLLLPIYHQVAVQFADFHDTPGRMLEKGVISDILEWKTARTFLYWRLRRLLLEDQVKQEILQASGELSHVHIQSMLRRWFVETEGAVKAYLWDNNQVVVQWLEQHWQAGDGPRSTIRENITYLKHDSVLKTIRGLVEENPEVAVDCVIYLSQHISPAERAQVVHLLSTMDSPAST
# Test: Measurement of inhibitory activity of human ACC2
# Assay conditions: read-out: IC50 hACC2
Labelling: IC50 reported below 9 nM becomes yes (1); at or above becomes no (0).

**Q:** In the record for CC(=O)N[C@@H](C)CC[C@H]1OC[C@H](Oc2nc3c(F)cc(OC4CC4)cc3n2C)CO1 [Compound I-13] , is IC50 less than 9 nM?
**A:** yes (1)

**Q:** In the record for C[C@@H](CO[C@H]1CC[C@H](Oc2nc3c(Cl)cc(OC4CC4)cc3n2C)CC1)NC(N)=O [Compound I-8] , is IC50 less than 9 nM?
**A:** no (0)

**Q:** In the record for CC(=O)N[C@@H](C)CO[C@H]1CC[C@H](Oc2nc3c(F)cc(OC4CC4)cc3n2C)CC1 [Compound I-15] , is IC50 less than 9 nM?
**A:** yes (1)

**Q:** In the record for C[C@@H](CCC1OCC(Oc2nc3c(F)cc(OCC(F)F)c(F)c3n2C)CO1)NC(N)=O (stereo partly shown) [Compound I-11] , is IC50 less than 9 nM?
**A:** no (0)

**Q:** In the record for CC(=O)N[C@@H](C)C(F)(F)C[C@H]1CC[C@H](Oc2nc3c(F)cc(OCC(F)F)c(F)c3n2C)CO1 [Compound I-6] , is IC50 less than 9 nM?
**A:** no (0)

**Q:** In the record for CC(=O)N[C@@H](C)CC(F)(F)[C@@H]1CC[C@@H](Oc2nc3c(F)cc(OCC(F)F)c(F)c3n2C)CO1 [Compound I-10] , is IC50 less than 9 nM?
**A:** no (0)

**Q:** In the record for CC(=O)N[C@@H](C)CC[C@H]1OC[C@H](Oc2nc3c(F)cc(OCC(F)F)c(F)c3n2C)C[C@@H]1F [Compound I-2] , is IC50 less than 9 nM?
**A:** no (0)

**Q:** In the record for CC(=O)N[C@@H](C)CC[C@H]1OC[C@H](Oc2nc3c(F)cc(OCC(F)F)c(F)c3n2C)CC1(F)F [Compound I-9] , is IC50 less than 9 nM?
**A:** no (0)

**Q:** In the record for CC(=O)N[C@@H](CF)CO[C@H]1CC[C@H](Oc2nc3c(F)cc(OC4CC4)cc3n2C)CC1 [Compound I-4] , is IC50 less than 9 nM?
**A:** yes (1)

**Q:** In the record for CC(=O)N[C@@H](C)CO[C@H]1CC[C@H](Oc2nc3c(F)cc(OCC(F)F)c(F)c3n2C)CC1 [Compound I-14] , is IC50 less than 9 nM?
**A:** yes (1)

**Q:** In the record for CC(=O)N[C@H](C)C(F)(F)C[C@H]1CC[C@H](Oc2nc3c(F)cc(OCC(F)F)c(F)c3n2C)CO1 [Compound I-7] , is IC50 less than 9 nM?
**A:** no (0)

**Q:** In the record for C[C@@H](CO[C@H]1CC[C@H](Oc2nc3c(F)cc(OC4CC4)cc3n2C)CC1)NC(N)=O [Compound I-12] , is IC50 less than 9 nM?
**A:** yes (1)

----------
# Test: Metabolic stability test (human)
# Type: in vitro ADME
# Assay conditions: human liver microsomes, 37° C., 30 minutes, NADPH
Experimental endpoint: Amount of compound remained, Human (%)
Kindly provide the numeric value in % only, without the unit symbol.

// field: Amount of compound remained, Human; key: CC(=O)N[C@@H](C)CO[C@H]1CC[C@H](Oc2nc3c(F)cc(OC4CC4)cc3n2C)CC1 [Compound I-15] ; value = 80.2

// field: Amount of compound remained, Human; key: CC(=O)N[C@@H](C)CO[C@H]1CC[C@H](Oc2nc3c(F)cc(OCC(F)F)c(F)c3n2C)CC1 [Compound I-14] ; value = 94.8

// field: Amount of compound remained, Human; key: C[C@@H](CCC1OCC(Oc2nc3c(F)cc(OCC(F)F)c(F)c3n2C)CO1)NC(N)=O (stereo partly shown) [Compound I-11] ; value = 95.8

// field: Amount of compound remained, Human; key: CC(=O)N[C@@H](C)C(F)(F)C[C@H]1CC[C@H](Oc2nc3c(F)cc(OCC(F)F)c(F)c3n2C)CO1 [Compound I-6] ; value = 93.2

// field: Amount of compound remained, Human; key: C[C@@H](CO[C@H]1CC[C@H](Oc2nc3c(Cl)cc(OC4CC4)cc3n2C)CC1)NC(N)=O [Compound I-8] ; value = 83.6

// field: Amount of compound remained, Human; key: CC(=O)N[C@@H](C)CC[C@H]1OC[C@H](Oc2nc3c(F)cc(OC4CC4)cc3n2C)CO1 [Compound I-13] ; value = 95.4

// field: Amount of compound remained, Human; key: CC(=O)N[C@@H](C)CO[C@H]1CC[C@H](Oc2nc3c(Cl)cc(OC4CC4)cc3n2C)CC1 [Compound I-3] ; value = 80.3

----------
# Tested system: recombinant human ACC1 (Homo sapiens (Human))
# Test: Measurement of inhibitory activity of human ACC1
# Assay conditions: read-out: IC50 hACC1
Give IC50 for every item shown.
Kindly provide the numeric value in nM only, without the unit symbol.

Fill in: recombinant human ACC1 (Homo sapiens (Human)) IC50 for "CC(=O)N[C@@H](C)CO[C@H]1CC[C@H](Oc2nc3c(F)cc(OCC(F)F)c(F)c3n2C)CC1" = 2700

Fill in: recombinant human ACC1 (Homo sapiens (Human)) IC50 for "C[C@@H](CO[C@H]1CC[C@H](Oc2nc3c(F)cc(OC4CC4)cc3n2C)CC1)NC(N)=O" = 6900

Fill in: recombinant human ACC1 (Homo sapiens (Human)) IC50 for "CC(=O)N[C@@H](C)CO[C@H]1CC[C@H](Oc2nc3c(Cl)cc(OC4CC4)cc3n2C)CC1" = 2800

Fill in: recombinant human ACC1 (Homo sapiens (Human)) IC50 for "CC(=O)N[C@H](C)C(F)(F)C[C@H]1CC[C@H](Oc2nc3c(F)cc(OCC(F)F)c(F)c3n2C)CO1" = 25000

Fill in: recombinant human ACC1 (Homo sapiens (Human)) IC50 for "CC(=O)N[C@@H](C)CO[C@H]1CC[C@H](Oc2nc3c(F)cc(OC4CCC4)cc3n2C)CC1" = 320

Fill in: recombinant human ACC1 (Homo sapiens (Human)) IC50 for "CC(=O)N[C@@H](C)CC[C@H]1OC[C@H](Oc2nc3c(F)cc(OCC(F)F)c(F)c3n2C)CC1(F)F" = 2600

Fill in: recombinant human ACC1 (Homo sapiens (Human)) IC50 for "CC(=O)N[C@@H](C)CC[C@H]1OC[C@H](Oc2nc3c(F)cc(OCC(F)F)c(F)c3n2C)C[C@@H]1F" = 2400

Fill in: recombinant human ACC1 (Homo sapiens (Human)) IC50 for "C[C@@H](CO[C@H]1CC[C@H](Oc2nc3c(Cl)cc(OC4CC4)cc3n2C)CC1)NC(N)=O" = 6200

Fill in: recombinant human ACC1 (Homo sapiens (Human)) IC50 for "CC(=O)N[C@@H](C)CC[C@H]1OC[C@H](Oc2nc3c(F)cc(OC4CC4)cc3n2C)CO1" = 910

Fill in: recombinant human ACC1 (Homo sapiens (Human)) IC50 for C[C@@H](CCC1OCC(Oc2nc3c(F)cc(OCC(F)F)c(F)c3n2C)CO1)NC(N)=O (stereo partly drawn) = 7000

Fill in: recombinant human ACC1 (Homo sapiens (Human)) IC50 for "CC(=O)N[C@@H](CF)CO[C@H]1CC[C@H](Oc2nc3c(F)cc(OC4CC4)cc3n2C)CC1" = 2700

Fill in: recombinant human ACC1 (Homo sapiens (Human)) IC50 for "Cn1c(O[C@H]2CC[C@H](OC[C@H](CF)NC(N)=O)CC2)nc2c(F)cc(OC3CC3)cc21" = 6900

Fill in: recombinant human ACC1 (Homo sapiens (Human)) IC50 for "CC(=O)N[C@@H](C)CO[C@H]1CC[C@H](Oc2nc3c(F)cc(OC4CC4)cc3n2C)CC1" = 1700

Fill in: recombinant human ACC1 (Homo sapiens (Human)) IC50 for "CC(=O)N[C@@H](C)C(F)(F)C[C@H]1CC[C@H](Oc2nc3c(F)cc(OCC(F)F)c(F)c3n2C)CO1" = 920
